- Test system: NCI-H522
- assay-procedure: NCI tumour cell line growth inhibition, 48 h
Activity calls are given as the source filed them. Cut-off read from the data, not from the text of the source: active = GI50 up to about 1.1 µM and inactive = higher.
Hi! Could you answer with just one of these? T = active, F = inactive

{"columns": ["molecule", "label-value"],
 "data": [
  ["C/C(=N\\Nc1nc2ccccc2n1C)c1cnccn1", "T"],
  ["Cc1ccc2c(c1)C(C1Cc3c(C)cccc3C1=O)OC2=O (stereo not given)", "F"],
  ["CNc1nc(N)nc(Nc2ccc(I)cc2)c1N=O", "F"],
  ["COc1cc(/C=C/c2ccc(OC(C)=O)cc2)cc(OC)c1OC", "F"]
]}

Then there is this molecule:
input: // param item: C[N+]1(CCN[N+]2(C)CCCCC2)CCc2ccccc2C1 (stereo not given) ; yields the recorded call
output: F

====

- Test system: M14
- assay-procedure: NCI tumour cell line growth inhibition, 48 h
Activity calls are given as the source filed them. Rule as the data show it: active = GI50 up to about 1.1 µM and inactive = higher.
measurement-label: GI50

# example entries with known answers
{"columns": ["compound", "measurement-label", "test-result"],
 "data": [
  ["CCOC(=O)c1sc2nc(SC)nc3c2c1NCN3c1ccc2c(c1)OCO2", "GI50", "15.5 µM (inactive)"],
  ["CC1CC2OC(=O)CC2C[C@@H]1O[Si](C)(C)C(C)(C)C (some centres undefined)", "GI50", "94.6 µM (inactive)"]
]}

// for each compound in input: emit GI50
1. COC(=O)N/N=C(\C)CC(=O)Nc1ccc(Cl)cc1
2. CCC(C)C(NC(=O)C(CCCC[N+](=N)N)NC(=O)C(CCCC[N+](=N)N)NC(=O)c1ccc(OC)cc1)C(=O)NC(CCCC[N+](=N)N)C(=O)N1CCCC1C(=O)NC(CCCCN)C(=O)NC(CC(C)C)C(N)=O (centres undefined)
3. C(=N\c1ccc(-c2nc3ccccc3o2)cc1)/c1ccco1

output:
> 100 µM (inactive)
> 100 µM (inactive)
79.6 µM (inactive)

// for each compound in input: emit GI50
1. CN(/N=C/C=N/N(C)C1=NCCCCN1)C1=NCCCCN1
2. O=C1C=C(Br)C(=O)C(Br)=C1
3. CC1(C)N=C(/C(C#N)=[N+](/[O-])C(=O)c2ccccc2)C(C)(C)N1O

output:
> 100 µM (inactive)
> 100 µM (inactive)
> 100 µM (inactive)

input: Query GI50 for c1ccc2[nH]c(CNc3ccc(C4C[Se]N=N4)cc3)nc2c1 (centres undefined)
output: 67.3 µM (inactive)

====

- Test system: IGROV-1
- assay-procedure: NCI tumour cell line growth inhibition, 48 h
Activity calls are given as the source filed them. Rule as the data show it: active = GI50 up to about 1.1 µM and inactive = higher.
measurement-label: GI50

# example entries with known answers
{"columns": ["compound", "measurement-label", "test-result"],
 "data": [
  ["O=C1N=C2N=C(c3ccc(Cl)cc3)N(c3ccc(Cl)cc3)N2Sc2ccccc21", "GI50", "> 100 µM (inactive)"],
  ["Nc1nccc(Nc2ccc(S(N)(=O)=O)cc2)n1", "GI50", "> 100 µM (inactive)"],
  ["CSc1ccc2c(cc1=O)[C@@H](NC(=O)c1ccc(N)cc1)CCc1cc(O)c(O)c(O)c1-2", "GI50", "25 µM (inactive)"],
  ["NCC[Se][Se]CCN", "GI50", "9.23 µM (inactive)"],
  ["O=C(CSc1nc2ccc(I)cc2c(=O)n1Cc1ccccc1)NN1C(=O)CSC1c1ccccc1 (stereo not given)", "GI50", "22.6 µM (inactive)"],
  ["CC1(C)CC(=O)c2c(-c3ccc(Cl)cc3)c(C#N)c(=S)n(C3OC(CO)C(O)C(O)C3O)c2C1 (stereo not given)", "GI50", "56.8 µM (inactive)"],
  ["O=c1[nH]nc(Cc2ccccc2)n1CCO", "GI50", "> 100 µM (inactive)"],
  ["CCOC(=O)c1ccc(NC(=O)O/N=C(/Cl)CC)cc1", "GI50", "18.5 µM (inactive)"]
]}

// for each compound in input: emit GI50
1. C[N+](C)(C)CCOP(=O)(O)OP(=O)([O-])OCC1CCC(n2ccc(N)nc2=O)O1 (stereo not given)
2. O=S(=O)(O)c1ccc(/N=N/c2nc(C(F)(F)F)c(C(F)(F)F)[nH]2)cc1
3. Cc1cccc(C)c1NC(=O)C(=O)C(c1ccccc1Cl)S(=O)(=O)Cc1ccccc1Cl (stereo not given)

output:
1: > 100 µM (inactive); 2: > 100 µM (inactive); 3: > 62.4 µM (inactive)

// for each compound in input: emit GI50
1. CSc1ccc(/C=C/c2ccnc3ccccc23)cc1
2. CO/N=C/c1cc(OC)c(OC)c(OC)c1
3. N=C(N)N/N=C/c1c(-c2ccccc2[N+](=O)[O-])nc2sccn12
4. CC(C)C(Sc1nc(-c2ccccc2)c(-c2ccccc2)[nH]1)c1n[nH]c(=S)n1-c1ccccc1 (stereo not given)

output:
1: 16.4 µM (inactive); 2: > 100 µM (inactive); 3: 37.6 µM (inactive); 4: 26.4 µM (inactive)
